# assay overview: gradient 5% acetonitrile 3 min, to 50% in 2 min, to 85% in 15 min, held 3 min, 100 µL/min
# condition parameters: column: Zorbax Extend-C18 2.1 x 50 mm; eluents: water / acetonitrile, 0.1% formic acid
Class (required): determined from RP-LC retention time; valid ranges are interval 1 = under 700 s, interval 2 = from 700 s up to 1000 s, interval 3 = 1000 s and over

Some solved entries appear below for comparison.
INSERT INTO measurements (compound, assigned_label) VALUES
  ('O=C(NC1CCCC1)c1cc2sccc2n1Cc1ccc(F)cc1', 'interval 3'),
  ('Cc1cc(C)cc(NS(=O)(=O)c2c[nH]c3ncccc23)c1', 'interval 2'),
  ('CCCCN(CC)C(=O)c1cc2c(=O)n3ccccc3nc2n1C', 'interval 2'),
  ('O=C(NCc1ccco1)c1ccc(NC(=O)C2CC2)cc1N1CCCCCC1', 'interval 1');

// switching to the query compound
(Q) // bin(item) where item = CCc1noc(C2(NC(=O)C(CC)c3ccccc3)CCCCC2)n1 (stereo not given)
(A) interval 3

----------
# assay overview: gradient 5% acetonitrile 3 min, to 50% in 2 min, to 85% in 15 min, held 3 min, 100 µL/min
# condition parameters: column: Zorbax Extend-C18 2.1 x 50 mm; eluents: water / acetonitrile, 0.1% formic acid
Would you please tag the item 1 when its RP-LC retention time is 800 s or above, and -1 when it is below?

Some solved entries appear below for comparison.
INSERT INTO measurements (molecule, assigned_label) VALUES
  ('CC1=NOC(C)(CNS(=O)(=O)c2ccc(F)cc2)C1 (centres undefined)', -1),
  ('Cc1ccc(NC(=O)NC2CCN(c3ccc(C)c(C)c3)C2=O)cc1 (centres undefined)', 1),
  ('O=C(c1ccc(F)cc1)N1CCCC1c1nc(-c2cccc(C(F)(F)F)c2)no1 (centres undefined)', 1),
  ('CCCCN1C(=O)C2(NCCc3c2[nH]c2ccc(OC)cc32)c2cc(Br)ccc21 (centres undefined)', -1),
  ('COc1cc2c(cc1C(=O)NCc1ccc3c(c1)CCCO3)OCCCO2', 1),
  ('Cn1nc(C(=O)N2CCOCC2)c2c1CN(C(=O)Cc1ccsc1)C2', -1);

(Q) Say whether Cc1noc(-c2cc(=O)n(CC(=O)Nc3cccc(Cl)c3)c3ccccc23)n1 shows RP-LC retention time of 800 s or more.
(A) 1

(Q) Say whether Cc1c(Cl)cccc1-c1ccc(CNCCc2ccc(S(N)(=O)=O)cc2)o1 shows RP-LC retention time of 800 s or more.
(A) -1

(Q) Say whether Cc1cc(-c2cc(S(=O)(=O)N3CCC(Cc4ccccc4)CC3)c(C)s2)n[nH]1 shows RP-LC retention time of 800 s or more.
(A) 1

(Q) Say whether CCOC(=O)c1noc2ncnc(N(Cc3ccccc3OC)C3CCN(C)CC3)c12 shows RP-LC retention time of 800 s or more.
(A) -1

(Q) Say whether CC(=O)N1CCN(c2nc3c(s2)CC(C(=O)NCc2cc(C)ccc2C)CC3)CC1 (centres undefined) shows RP-LC retention time of 800 s or more.
(A) -1

(Q) Say whether Cc1ccc(CN2CCN(C3CCN(C(=O)c4ccc(Br)o4)CC3)C(=O)C2=O)cc1 shows RP-LC retention time of 800 s or more.
(A) -1

(Q) Say whether Cc1nc(N2CCN(c3ccccn3)CC2)nc2c1C(=O)CC(C)C2 (centres undefined) shows RP-LC retention time of 800 s or more.
(A) -1

(Q) Say whether Cc1ccc(C)c(CNC(=O)CN2CCN(Cc3ccc(F)cc3)C2=O)c1 shows RP-LC retention time of 800 s or more.
(A) 1

(Q) Say whether Cc1ccc(NS(=O)(=O)c2cc3n(c2)CCN(CC(C)C)C3=O)cc1F shows RP-LC retention time of 800 s or more.
(A) 1
